Data provenance: PubChem BioAssay AID1159580

- PROCEDURE TEXT: chemical genetic growth profiling, strain panel (AID 1159580);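 further: tested at 20 µM; growth read once vehicle control cultures reached saturation at 30 °C; 1 = growth at the plate median or of vehicle wells; lower values mean less growth of the strain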
- TEST SETTINGS: S. cerevisiae deletion strains, growth OD, locus YDR297W, strain sur2, hits give low values
The whole screen tested about 5,500 compounds, of which about 2,000 (36%) were called active. Another 18% or so got no clear call; they are omitted. Some of the results follow.
As shown below, each of these compounds has a reported normalized growth value.
MEASUREMENT KIND: normalized growth

In [3]: df
Out[3]:
                                   compound  numeric_value
0           Nc1ccc(S(=O)(=O)c2ccc(N)cc2)cc1          0.996
1  CC1(C)CC[C@]2(C(=O)O)CC[C@]3(C)C(=CCC4[C@@]5(C)CC[C@H](O)[C@@](C)(CO)C5CC[C@]43C)C2C1 (some centres undefined)           1.03
2  CC(=O)O[C@H]1CC[C@@]2(C)C(CC[C@]3(C)C2CC=C2C4CC(C)(C)CC[C@]4(C)CC[C@]23C)C1(C)C (some centres undefined)              1
3  CC1(C)CC(O)C2(C)CCC3(C)C(=CCC4C5(C)CCC(O)C(C)(CO)C5CCC43C)C2C1 (centres undefined)           1.02

* * *

- PROCEDURE TEXT: chemical genetic growth profiling, strain panel (AID 1159580);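 further: tested at 20 µM; growth read once vehicle control cultures reached saturation at 30 °C; 1 = growth at the plate median or of vehicle wells; lower values mean less growth of the strain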
- TEST SETTINGS: S. cerevisiae deletion strains, growth OD, locus YAL013W, strain DEP1, hits give low values
Hit rate of the full screen: of about 5,500 compounds, about 2,000 (36%) were called active. Roughly 18% stayed inconclusive and do not appear here. The list shows a part of the results.
MEASUREMENT KIND: normalized growth

                                   compound            result
0  C[C@@H]1C(=O)O[C@H]2[C@H]1CC[C@@]1(C)C=CC(=O)[C@@]3(C)O[C@@]213      1 (inactive)
1  FC(F)(F)c1cnc(N2CCN(C(=S)Nc3ccccc3)CC2)c(Cl)c1  0.989 (inactive)
2                O=C1CC(CSc2ccc(Cl)cc2)=NN1  0.957 (inactive)
3  CCNC(=O)C1OC(n2cnc3c(NCc4ccccc4)ncnc32)C(O)C1O (stereo not given)  0.989 (inactive)
4  CC(C)c1ccccc1NC(=S)N1CCN(c2ncc(C(F)(F)F)cc2Cl)CC1   1.02 (inactive)
5  CC1C(=O)OC2C1CCC1(C)C=CC(=O)C3(C)OC213 (stereo not given)  0.968 (inactive)
6     Cc1nn(C)c(C)c1NS(=O)(=O)c1cc(Cl)sc1Cl      1 (inactive)
7  Cc1noc(C)c1-c1nc(-c2cc(C(F)(F)F)cc(C(F)(F)F)c2)no1   1.02 (inactive)
8  C[C@@H]1CC[C@H]2[C@@H](C)C(O)O[C@@H]3O[C@@]4(C)CC[C@@H]1[C@]32OO4 (stereo not given in full)    0.528 (active)
9  C[C@@H]1CC[C@H]2[C@@H](C)C(=O)O[C@@H]3O[C@@]4(C)CC[C@@H]1[C@]32OO4  0.924 (inactive)

* * *

As shown below, each of these compounds has a reported normalized growth value.
- PROCEDURE TEXT: chemical genetic growth profiling, strain panel (AID 1159580);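 further: tested at 20 µM; growth read once vehicle control cultures reached saturation at 30 °C; 1 = growth at the plate median or of vehicle wells; lower values mean less growth of the strain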
- TEST SETTINGS: S. cerevisiae deletion strains, growth OD, locus YDR069C, strain doa4, hits give low values
The campaign covered roughly 5,500 compounds. About 2,000 (36%) were called active. Inconclusive results (about 18%) are left out. Some of the results follow.

COMPOUND	normalized growth
COC1=C[C@@H]2[C@@H]3Cc4ccc(OC)c(O)c4[C@]2(CCN3C)CC1=O	0.979
CC1OC(=O)C(C(C)C)NC(=O)C(C(C)C)OC(=O)C(C(C)C)NC(=O)C(C)OC(=O)C(C(C)C)NC(=O)C(C(C)C)OC(=O)C(C(C)C)NC(=O)C(C)OC(=O)C(C(C)C)NC(=O)C(C(C)C)OC(=O)C(C(C)C)NC1=O (configuration not stated)	0.383
CCN1C[C@]2(OC(=O)c3ccccc3NC(C)=O)CCC(OC)[C@]34C1[C@H](CC23)[C@@]1(O)CC(OC)[C@H]2CC4C1(O)[C@H]2OC (some centres not stated)	0.953
CC(C)(C#N)O[C@@H]1O[C@H](CO)[C@@H](O)[C@H](O)[C@H]1O	1.03
Cc1ccc(-c2cc(C(F)(F)F)nn2-c2ccc(S(N)(=O)=O)cc2)cc1	1.02
COc1cccc2c1C(=O)c1c(O)c3c(c(O)c1C2=O)C[C@@](O)(C(=O)CO)C[C@@H]3OC1C[C@H](N)[C@H](O)[C@H](C)O1 (some centres not stated)	0.595
CC1=NS(=O)(=O)c2cc(Cl)ccc2N1	0.937
